Target: OsWRKY34 (Oryza sativa, UniProt Q0JBA9 1-250)
Sequence (Q0JBA9 entry or part of it): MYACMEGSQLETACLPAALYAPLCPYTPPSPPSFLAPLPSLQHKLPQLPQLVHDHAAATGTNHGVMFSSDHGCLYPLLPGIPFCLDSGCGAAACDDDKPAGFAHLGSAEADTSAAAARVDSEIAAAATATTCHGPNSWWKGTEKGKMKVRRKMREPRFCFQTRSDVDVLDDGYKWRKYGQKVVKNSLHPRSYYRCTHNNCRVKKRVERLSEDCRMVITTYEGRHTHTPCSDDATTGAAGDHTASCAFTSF
Test: protein-binding microarray (RPBM); PBS, 2% BSA, 51.3 ng/ul salmon testes DNA, 50 uM zinc acetate, 200 nM TF, 25 C, 1 h; high values mean tight binding
Settings: protein: recombinant; tags: N-terminal polyhistidine and DsRed monomer fusion (pET32a); label: CyDye5-dUTP incorporated in the synthesized complementary strand; 3' TTTTT single-stranded linker to array surface; dsDNA, one strand shown
Whole data set: some 68,000 sequences, median “fluorescence intensity (a.u.)” near 9,100, cut for the highest 2% near 16,000. What follows is part of a selection rich in the highest values, with near analogues and random picks from the rest.
For each of the sequences below, state its binding signal.

# binding signal (sequence: AATCCCAAGCTAGGTGTTGACCATGGGTCAACAATCTCCCCGGAGTCACCTAGTGCAG ) is 9470 fluorescence intensity (a.u.)

Lab note: measured binding signal of GTGTTTTGCAAGGTTGTTTCTTTACCTTATCTATATACATCGGAGTCACCTAGTGCAG was 9790 fluorescence intensity (a.u.)

Sample TCCGTATTTTAATGTATGACGCCGTTGACTTTTTATCCAACGGAGTCACCTAGTGCAG ; binding signal observed: 21400 fluorescence intensity (a.u.)

Looking up AATGTTAACGGTGCATGTGGTTGGTTGATTTGATTAGTGACGGAGTCACCTAGTGCAG , I see its binding signal listed as 15300 fluorescence intensity (a.u.)

// field: binding signal; key: GCCTGGCGCGCCTCTCCTGCTCTGTTGGACCGCCGCGCCCCGGAGTCACCTAGTGCAG ; value = 12000 fluorescence intensity (a.u.)

So, ATATACTACCTCCATATTTTAATGTATGACGCCGTTGACTCGGAGTCACCTAGTGCAG ? Its binding signal was 8860 fluorescence intensity (a.u.)

Just so you know, measured binding signal for CTCTCTCTCTCTCTCTCTCTCTGCTGTTTTCTGTATCTGACGGAGTCACCTAGTGCAG came out at 10100 fluorescence intensity (a.u.)

Consider CATGATCGCTGTGCACCTTCTGAATCATCTCTTCAATGGCCGGAGTCACCTAGTGCAG . Its measured binding signal is 9780 fluorescence intensity (a.u.)

// binding signal lookup, sequence = CATATCAGTGGTTAACTGTGCTGTCTCAGTTGATCTCCCGCGGAGTCACCTAGTGCAG , result: 8360 fluorescence intensity (a.u.)

Entry TATTACTACCTTCATATTTTAATGTATGACGCCGTTGACTCGGAGTCACCTAGTGCAG — recorded binding signal = 11900 fluorescence intensity (a.u.)

Note to self: binding signal recorded for TTCCCTCCATATTTTAATGTATGACGCCGTTGACTTTTTACGGAGTCACCTAGTGCAG was 17700 fluorescence intensity (a.u.)

The reported binding signal of the sequence TTTCTTCGTCCTCTTGGTTTCCCTTTCAATTCATTCATTTCGGAGTCACCTAGTGCAG was 8460 fluorescence intensity (a.u.)

get_value(item= GGCGGCGGCGGCGGCGGTGGTGGTGAGGAGGAGGAGGAGGCGGAGTCACCTAGTGCAG , readout=binding signal) returns 10700 fluorescence intensity (a.u.)

Form: sequence = TTGTCTCCTATCTTGTGCCGTGCCTTCTTAAACCATTGCTCGGAGTCACCTAGTGCAG ; binding signal = 8610 fluorescence intensity (a.u.)

# binding signal of CCCGCTTCTTCCCCGCTGCTTGAATCAGTCGTATCCTCACCGGAGTCACCTAGTGCAG = 11400 fluorescence intensity (a.u.)

binding signal recorded for this sequence, GCGGCCAGGCCACCTCCAGCTCTTTTCACTCCTGGCTAACCGGAGTCACCTAGTGCAG , is 9500 fluorescence intensity (a.u.)

Kindly note the recorded binding signal for ATTCGTTTCGTATTTATGCCCGATATTATCCGTGCTTCTACGGAGTCACCTAGTGCAG , which is 9200 fluorescence intensity (a.u.)

Lab note: measured binding signal of TACCTCCATATTTTAATGTATGACGCCGTTGACTTTTTATCGGAGTCACCTAGTGCAG was 28900 fluorescence intensity (a.u.)

Value of measured binding signal for the entry TACTCCCTCCGTATTTTAATGTATGACGCCGTTGACTTTTCGGAGTCACCTAGTGCAG : 13900 fluorescence intensity (a.u.)
